B1: TEKT4 (parent)
chain: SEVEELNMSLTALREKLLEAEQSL

Variants of: B1
Test: protein stability index of a GFP-peptide fusion (GPS, HEK-293T) (PSI 1-6); higher = more stable;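 also: lentivirally expressed fusions sorted by FACS into six bins by GFP to DsRed ratio, PSI derived from sequencing read proportions per bin multiplied by bin number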
Details: c terminus: a fixed tail appended
Parameter protein stability index: see the listing below.
Reply with just the number.

# Mutant code, protein stability index
records = [
    ("Q22A", 2.81),
    ("V3T", 2.99),
    ("S23G", 3.66),
]

I would be grateful if you could share the reported protein stability index for `L18Y` . 3.92

I would be grateful if you could share the reported protein stability index for `R14F` . 2.42

I would be grateful if you could share the reported protein stability index for `T11M` . 2.51

I would be grateful if you could share the reported protein stability index for `Q22L` . 1.96

I would be grateful if you could share the reported protein stability index for `A20P` . 4.76

I would be grateful if you could share the reported protein stability index for `E4Y` . 1.99

FYI, the data here is from the supplement of paper PMC10567573.
